Please provide measured IC50 of the inhibitory effect on the IFN-γ secretion of PBMC induced by IL-33 for the entries that follow.
Molecular target: T1, Human IL-33-his (human, UniProt O95760 112-270, biotinylated with EZ-Link NHS-Biotin where used as IL-33-his-biotin)
T1 sequence: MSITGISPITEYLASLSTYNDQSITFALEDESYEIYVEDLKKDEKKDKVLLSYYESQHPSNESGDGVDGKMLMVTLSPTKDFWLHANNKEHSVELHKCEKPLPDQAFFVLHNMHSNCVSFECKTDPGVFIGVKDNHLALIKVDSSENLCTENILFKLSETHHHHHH
Experiment: cell-based or functional assay

Ask: Give the measured IC50 of the inhibitory effect on the IFN-γ secretion of PBMC induced by IL-33 of 871G1-Hu1 (antibody, human IgG4 S228P, kappa, V domains shown, Humanized; also called humanized antibody 871G1-Hu1) VH: QVQLQESGPGLVKPSETLSLTCTVSGFSLSKYGVHWIRQPPGKGLEWIGVLRAGGTISYNSALMSRVTISEDISKSQVSLKLSSVTAADTAVYYCARDHYYYSSFGGFASWGQGTLVTVSS VL: DIQMTQSPSSVSASVGDRVTITCLASQTIGAWLAWYQQKPGKSPKLLIYAATRLADGVPSRFSGSGSGTDFTLTISSLQPEDFATYYCQQLNSTPYTFGQGTKVEIKR .
Result: 1.4 nM

Ask: And the next one, 871G1-Hu2 (antibody, human IgG4 S228P, kappa, V domains shown, Humanized; also called humanized antibody 871G1-Hu2) VH: QVQLQESGPGLVKPSETLSLTCTVSGFSLSKYGVHWIRQPPGKGLEWLGVLRAGGTISYNSALMSRLTISEDISKSQVSLKLSSVTAADTAVYYCARDHYYYSSFGGFASWGQGTLVTVSS VL: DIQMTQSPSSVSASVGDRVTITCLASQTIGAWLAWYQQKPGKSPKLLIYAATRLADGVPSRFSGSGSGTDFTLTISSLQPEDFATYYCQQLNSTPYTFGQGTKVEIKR ?
Result: 1.06 nM

Ask: And the next one, 864F3-Hu4 (antibody, human IgG4 S228P, kappa, V domains shown, Humanized; also called humanized antibody 864F3-Hu4) VH: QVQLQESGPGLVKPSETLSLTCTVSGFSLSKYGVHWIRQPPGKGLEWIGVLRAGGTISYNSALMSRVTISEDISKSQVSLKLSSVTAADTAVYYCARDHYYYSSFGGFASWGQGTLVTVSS VL: DIQMTQSPSSLSASVGDRVTITCLASQTIATWLAWYQQKPGKSPKLLIYAATRLADGVPSRFSGSGSGTDFTLTISSLQPEDFATYYCQQLYNTPYTFGQGTKVEIKR ?
Result: 1.22 nM

Ask: And the next one, 874F7-Hu2 (antibody, human IgG4 S228P, kappa, V domains shown, Humanized; also called humanized antibody 874F7-Hu2) VH: QVQLQESGPGLVKPSETLSLTCTVSGFSLSKYGVHWIRQPPGKGLEWLGVLRAGGSTGYNSALMSRLTISKDSSKSQVSLKLSSVTAADTAVYYCVRDHYYYSSYGGFVYWGQGTLVTVSS VL: DIQMTQSPSSVSASVGDRVTITCLASQTIGAWLAWYQQKPGKSPKLLIYAATRLADGVPSRFSGSGSGTDFTLTISSLQPEDFATYYCQQLDSSPYTFGQGTKVEIKR ?
Result: 1.74 nM

Ask: And the next one, 864F3-Hu5 (antibody, human IgG4 S228P, kappa, V domains shown, Humanized; also called humanized antibody 864F3-Hu5) VH: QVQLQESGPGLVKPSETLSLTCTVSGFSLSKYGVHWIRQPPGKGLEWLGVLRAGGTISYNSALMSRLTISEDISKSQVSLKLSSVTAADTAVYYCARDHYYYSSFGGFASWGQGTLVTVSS VL: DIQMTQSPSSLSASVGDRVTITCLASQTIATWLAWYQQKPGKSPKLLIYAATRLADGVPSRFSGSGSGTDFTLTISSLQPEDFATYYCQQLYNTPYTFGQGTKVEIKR ?
Result: 0.839 nM
